System: BALB/3T3
Experiment: Antiproliferative activity against BALB/3T3 cell line by MTT assay at 4 ug/ml
Assay type: functional
Conditions: Mus musculus, read-out: ID50 (the source's name)
Could you please report measured IC50 for the items listed next?
Field format: number, assumed µg/mL, no unit text.

Task: IC50 of ClCC/N=C\c1ccccc1OP12=NP(Oc3ccccc3/C=N\CCCl)(=NP(Oc3ccccc3/C=N\CCCl)(Oc3ccccc3/C=N\CCCl)=N1)OCCOCCOCCOCCO2 (centres undefined) on BALB/3T3?
Output: 25.3

Task: Notebook: pull reported IC50 for BALB/3T3, entry O=C1c2ccccc2C(=O)c2c(NCCNP34=NP(Oc5ccccc5/C=N\CCCl)(=NP(Oc5ccccc5/C=N\CCCl)(Oc5ccccc5/C=N\CCCl)=N3)OCCOCCOCCOCCO4)cccc21 (centres undefined)
Output: 9.54

Task: BALB/3T3 / IC50 / O=Cc1ccccc1OP12=NP(Oc3ccccc3C=O)(=NP(Oc3ccccc3C=O)(Oc3ccccc3C=O)=N1)OCCOCCOCCOCCO2 (centres undefined) : value?
Output: 12.1

Task: Enter reported IC50 observed with BALB/3T3 for O=Cc1ccccc1OP12=NP(Oc3ccccc3C=O)(Oc3ccccc3C=O)=NP(NCCNc3cccc4c3C(=O)c3ccccc3C4=O)(=N1)OCCOCCOCCOCCO2 (centres undefined)
Output: 33.2
